protein stability index values by entry
system: Saccharomyces cerevisiae; test: protein stability index of tFT-peptide fusion (C-terminal peptide) (PSI (0-1 scale)); higher = more stable (slower turnover); settings: genetic background: das1 deletion; temperature: 30 C;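 note: PSI is a weighted mean of sequencing reads over stability bins, variants kept only with over 10 reads, mCherry proximal and sfGFP distal, peptide attached via GGGS linker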
Metric: protein stability index

{"columns": ["Sequence String", "Recorded Measurement"],
 "data": [
  ["GLCGVVVGCWVR", 0.286],
  ["VCVFNLTLVGTH", 0.347],
  ["DFLSGRCIFFYV", 0.645],
  ["IKIQPKKRISLI", 0.632],
  ["SVIAYTKPLWFR", 0.351],
  ["SLSFLRPLLLIF", 0.12],
  ["FYAAILCLLFSC", 0.45],
  ["GLSVLLTCIHFV", 0.482],
  ["PSPYSLSPYFLV", 0.646],
  ["FNFFFSSVFLLV", 0.342],
  ["GNRDLVNTSVEG", 0.619],
  ["VWFCCLFFCFFV", 0.378],
  ["PPCSLLPPPPAP", 0.682],
  ["FIPPRTYCLMIG", 0.58],
  ["CRLATILRITAL", 0.552],
  ["SGLVAFSVCCRG", 0.301],
  ["SQVILFFLSLCR", 0.494],
  ["WTRAHWFFQFFV", 0.667],
  ["FSFSFYFALASF", 0.425],
  ["SRRRRLVSKFLA", 0.653],
  ["IIGCIAICLMVN", 0.0942],
  ["ALHGTVRNWQRQ", 0.63],
  ["MALAVRVVICGA", 0.134],
  ["CVIVCVLVWGRA", 0.17],
  ["SVFGVRARFGSV", 0.709],
  ["PPVAYVCHLYVT", 0.5],
  ["PLLLLLPSLLLV", 0.3],
  ["VGTGVGEGGGVV", 0.645],
  ["ALPLRSNILSVF", 0.344],
  ["MLCVFVFIWYFV", 0.254],
  ["LGCRFCFVGVVG", 0.429],
  ["YCDPSLIWLYLM", 0.61],
  ["LLLRSSRLRVLS", 0.607],
  ["SPRGVVIAFLVC", 0.356],
  ["WFIPRSVCRWLF", 0.611],
  ["AFLFLFSITCIV", 0.195],
  ["EKTKRGLIQRVV", 0.641],
  ["VFLFSWYIFSVF", 0.234],
  ["PFFVFSFLFLLH", 0.192],
  ["VVFVGRSIVVLT", 0.358],
  ["SQIALIQYFHIL", 0.594]
]}
